# System: DU-145 prostate
# procedureDetails: NCI tumour cell line growth inhibition, 48 h
TGI listing for selected compounds.
propertyMeasured: TGI (µM)

O=C1c2ccc3ccccc3c2CCC1N1CCCCC1 (stereo not given) : 30.3
Clc1ccc(-c2cc(-c3nc4ccccc4[nH]3)no2)cc1 : 24.6

----------
# Tested on: MDA-MB-435
Outcome codes: y for active, n for inactive

COC(=O)/C(Br)=C/c1c[nH]c2ccc(Br)cc12 : n
CCOC(=O)C1=C(N)Oc2cc(OC)ccc2C1c1ccc(F)c(F)c1 (stereo not given) : y
COc1cc2c(/C=C3/C(=O)Nc4c3ccc3ccccc43)c(Cl)[nH]c2cc1C : y
COc1ccc(OC)c2c3c(ncc12)-c1cc2c(cc1C3)OCO2 : n
O=C(Nc1cc(Cl)cc(Cl)c1)c1ccc(NC2=C(Cl)C(=O)N(Cc3ccccc3)C2=O)cc1 : n
COc1ccc(/C=C2\CCCC3=C2N=C2SC=NN2C3c2ccc(OC)c(OC)c2)cc1OC (stereo not given) : n
O=C(CN/C=C\C(=O)c1cc(Cl)ccc1Cl)c1ccccc1 : n
COc1ccc(/C=C/C(=O)c2ccc(NC(=O)CSc3nnc(-c4cc(OC)c(OC)c(OC)c4)o3)cc2)cc1 : n
CCCNNC(=O)c1ccc(CNC(=O)/C=C/c2ccccc2)cc1 : y
OCCCNC(=S)Nc1ccc(-c2nc3ccccc3s2)cc1 : n
